src = paper PMC7155171

System: HepG2-A16-CD81 hepatocytes
assayNotes: HepG2 cytotoxicity screening (CellTiter-Glo)
runParameters: 2uM, primary screen
Please provide measured HepG2 Cytotoxicity primary screen (2uM): % Inhibition for the entries that follow.
Write the number in % without appending the unit.

Name the recorded HepG2 Cytotoxicity primary screen (2uM): % Inhibition for Cc1nc(C(=O)NC2CCN(CCOc3ccc(Br)cc3)CC2)cs1 [UCSD-0818164] .
17.63

Proceed to Cc1ccc(N(CC(=O)c2ccc(Br)cc2)C2=NCCCCC2)cc1 [UCSD-0795313]
0.00

Proceed to COc1cc(CNCc2ccnc(N3CCCCC3)c2)cc(OC)c1 [UCSD-0841255]
-2.79

Proceed to CC(=O)Nc1ncc(S(=O)(=O)Nc2ccc3c(c2)OCCO3)s1 [UCSD-0796805]
-2.36

Proceed to N#Cc1c(Cl)nsc1NCc1cccnc1OCC(F)(F)F [UCSD-0808444]
4.29

Proceed to CC(C)(C)NC(=O)N1CCC(Oc2ccc(C(F)(F)F)cn2)CC1 [UCSD-0787817]
-4.73

Proceed to CCc1cccc(N2CCC(NC(=O)c3ccco3)CC2)c1 [UCSD-0587427]
4.14

Proceed to Cn1cncc1CN1CCCC1c1cncc(Oc2ccc(Cl)cc2)n1 (centres unmarked) [UCSD-0800730]
0.83

Proceed to CC(C)N(CC(N)=O)Cc1csc(COc2ccc(F)cc2)n1 [UCSD-0845986]
6.02

Proceed to COc1cccc(CNc2cc(C)nc(-c3ccncc3)n2)c1OC [UCSD-0704521]
-4.44

Proceed to Nc1nc(CCC(=O)N2CCOC(CC3CCCCC3)C2)cs1 (centres unmarked) [UCSD-0838977]
-10.55

Proceed to COc1c(C)cnc(CN2CCC(N(C)C(C)C(N)=O)CC2)c1C (centres unmarked) [UCSD-0844796]
1.63

Proceed to COCCCNC1N=C(n2nc(C)cc2C)Nc2sc3c(c21)CCCC3 (centres unmarked) [UCSD-0796603]
2.66

Proceed to O=C(NCCCN1CCCCC1)c1ccc(-n2ccc3ccccc32)s1 [UCSD-0795001]
0.00

Proceed to Cc1cn2c(n1)C(CNCC1=Cc3ccccc3OC1)CCC2 (centres unmarked) [UCSD-0812993]
-0.92

Proceed to COc1ccc(-c2nc(CN3CC(n4cc(C)cn4)C3)no2)cc1 [UCSD-0819446]
-12.79

Proceed to c1ccc(-c2ccc(C3CNCCO3)nc2)cc1 (centres unmarked) [UCSD-0839460]
6.27

Proceed to Cc1csc2ncnc(N3CCC(Cn4cc(C(C)(C)N)nn4)CC3)c12 [UCSD-0838044]
4.60

Proceed to Cc1ccoc1C(=O)NC1CCN(Cc2csc3c(F)cccc23)CC1 [UCSD-0846562]
-2.96

Proceed to CC1(c2ccccc2)CCCN(Cc2cncn2C2CCCC2)C1 (centres unmarked) [UCSD-0827293]
-6.73

---

Please provide measured Emax for the entries that follow.
target: recombinant firefly luciferase (Photinus pyralis, UniProt P08659)
Sequence (P08659 whole entry): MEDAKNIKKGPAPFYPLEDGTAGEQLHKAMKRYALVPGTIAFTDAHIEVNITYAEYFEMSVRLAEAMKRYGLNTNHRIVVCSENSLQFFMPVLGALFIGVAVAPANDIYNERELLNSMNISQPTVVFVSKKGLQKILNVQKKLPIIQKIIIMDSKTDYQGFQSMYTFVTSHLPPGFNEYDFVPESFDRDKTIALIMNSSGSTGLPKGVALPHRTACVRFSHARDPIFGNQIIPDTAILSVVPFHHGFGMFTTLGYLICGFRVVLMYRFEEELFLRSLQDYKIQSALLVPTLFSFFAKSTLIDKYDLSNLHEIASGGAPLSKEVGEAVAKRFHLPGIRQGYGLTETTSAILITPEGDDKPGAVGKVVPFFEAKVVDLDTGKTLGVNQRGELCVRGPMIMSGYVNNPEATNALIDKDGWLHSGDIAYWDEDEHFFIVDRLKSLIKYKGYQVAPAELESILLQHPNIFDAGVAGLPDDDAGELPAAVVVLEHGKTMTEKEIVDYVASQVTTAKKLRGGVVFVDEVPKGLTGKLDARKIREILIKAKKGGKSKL
assayNotes: biochemical
runParameters: dose response, maximum inhibition; read-out: rLuc inhibition dose response: Maximum inhibition (%)
Write the number in % without appending the unit.

Lookup: Emax / recombinant firefly luciferase (Photinus pyralis, UniProt P08659) / COc1ccc(-c2nc(CN3CC(n4cc(C)cn4)C3)no2)cc1 [UCSD-0819446]
6.87

Proceed to c1ccc(-c2ccc(C3CNCCO3)nc2)cc1 (stereo not shown) [UCSD-0839460]
89.9

Proceed to CC(C(=O)Nc1sccc1C(N)=O)N(C)CCOc1ccccc1 (stereo not shown) [UCSD-0809872]
17.7

Proceed to O=C(Nc1ccc(Cl)cn1)c1nn(C2CCS(=O)(=O)C2)c2c1CCCC2 (stereo not shown) [UCSD-0749819]
2.39

Proceed to Cc1ncc(CN2CCOC(c3ccc(-c4ccccc4F)cn3)C2)s1 (stereo not shown) [UCSD-0800928]
19.3

Proceed to Cc1cn2c(n1)C(CNCC1=Cc3ccccc3OC1)CCC2 (stereo not shown) [UCSD-0812993]
66.8

Proceed to Cc1csc2ncnc(N3CCC(Cn4cc(C(C)(C)N)nn4)CC3)c12 [UCSD-0838044]
21.9

Proceed to Cc1ccc(N(CC(=O)c2ccc(Br)cc2)C2=NCCCCC2)cc1 [UCSD-0795313]
7.66

Proceed to c1ccc(OCCNc2ncnc3sc4c(c23)CCNC4)cc1 [UCSD-0829760]
7.54

Proceed to O=C(NCCCN1CCCCC1)c1ccc(-n2ccc3ccccc32)s1 [UCSD-0795001]
-4.22

Proceed to CSc1ccc(CN2C[C@@H]3CC[C@@](O)(c4ccc(C)cn4)[C@@H]3C2)cc1 [UCSD-0801744]
38.3

Proceed to CCc1cc(=O)[nH]c(-n2nc(C3CC3)cc2NC(=O)C2CC2)n1 [UCSD-0787226]
8.54

Proceed to O=c1c2sccc2nc2n1CCN(Cc1ccccc1C(F)(F)F)CC2 [UCSD-0801403]
18.4

Proceed to Cc1nc(N2CC[C@@H](NC(=O)c3cnccn3)[C@H](O)C2)c2ccsc2n1 [UCSD-0839060]
0.656

Proceed to COc1cccc(-c2noc(C3CCN(Cc4cn(C)nc4C)C3)n2)c1 (stereo not shown) [UCSD-0839537]
60.2

Proceed to CC(C)Cn1ccc2c(NC(=O)c3n[nH]c4c3CCC4)cccc21 [UCSD-0786893]
38.5

Proceed to CC(C)(CO)Nc1ccc(-c2nc(-c3ccccc3F)no2)cn1 [UCSD-0833103]
93.7

Proceed to COC(=O)CSCc1noc(-c2ccc(C)cc2)n1 [UCSD-0807935]
62.8

Proceed to CCS(=O)(=O)N1CCc2ccc(NC(=O)Nc3cccc(SC)c3)cc21 [UCSD-0795016]
12.2

---

Tested on: P. falciparum Dd2 (PfLuc) line expressing firefly luciferase, asexual blood stage
assayNotes: microbe, parasite or virus in culture
Format: cell-based, Plasmodium falciparum
runParameters: Plasmodium falciparum, DD2; 11-pt dose response, 48hr; read-out: P. falciparum Luciferase ABS 11-pt Reconfirmation Dose Response (48hr): Maximum inhibition (%)
Please provide measured Emax for the entries that follow.
Write the number in % without appending the unit.

Name the recorded Emax for CCN1CCN(c2ccc(F)cc2C(C)NCc2cscn2)CC1 (centres unmarked) [DDD01070576] .
47.9

Proceed to Cc1ccc(CN(CCN(C)C)Cc2c(C)nc3sccn23)o1 [DDD01056924]
65.3

Proceed to Cc1cnn(CCCNCc2csc(COc3ccccc3)n2)c1 [DDD01077297]
63.7

Proceed to Cc1c(C)n(CC(O)CN2CCN(CCO)CC2)c2c(Cl)cccc12 (centres unmarked) [DDD01034970]
86.8

Proceed to O=C(c1ccc(F)c(Cl)c1)N1C[C@H]2CC[C@@H](C1)N(Cc1ccccc1)C2 [DDD01257805]
91.8

Proceed to CCn1ccnc1CN1CCCC(CO)(Cc2cccc(Cl)c2)C1 (centres unmarked) [DDD01258327]
38.3

Proceed to Cc1ccc(CN2CCCC3(CCN(Cc4ccoc4)CC3)C2)cc1 [DDD01031609]
88.7

Proceed to COc1cccc(-n2ccc3nc(N4CCCC4)ncc3c2=O)c1 [DDD01034957]
13.2

Proceed to c1ccc(CN2CCCC3(CCN(Cc4cccs4)C3)C2)nc1 (centres unmarked) [DDD01029520]
51.8

Proceed to CNc1cc(C)nc(NC2CCCN(C3Cc4ccccc4C3)C2)n1 (centres unmarked) [DDD01243506]
94.3

Proceed to COc1cc(C(=O)NCC2(N(C)C)CCN(C)CC2)c2ccccc2n1 [DDD01057375]
53

Proceed to CCC(NCc1ccccc1Cl)c1ccccc1OCC(=O)NC (centres unmarked) [DDD01075649]
57.7

Proceed to Cc1cc(N2CCC(NC(C)Cc3ccsc3)CC2)nc(C)n1 (centres unmarked) [DDD01076128]
81.4

Proceed to CC(O)CN1CCC(CNCc2cccc(C(F)(F)F)c2)CC1 (centres unmarked) [DDD01300262]
69.7

Proceed to Cc1cc(CN2CCc3nc(-c4ccncc4)nc(O)c3CC2)c(C)s1 [DDD01058881]
79

Proceed to CCc1cnc(N)nc1NC(C)c1ccc(C)c(C)c1 (centres unmarked) [DDD01250400]
94.8

Proceed to COc1ccc(NC(=O)Nc2cnc(N3CCN(C)CC3)nc2)cc1Cl [DDD01028129]
14.8

Proceed to COc1ccnc(CN2CCCC(CCc3ccccc3)C2)c1OC (centres unmarked) [DDD01250826]
93

Proceed to Cc1cccnc1[C@H](C)Nc1nc(-c2cccnc2)nc2c1CNC2 [DDD01248607]
79.2

Proceed to c1cc(N2CCC(CN3CCOCC3)CC2)c2sccc2n1 [DDD01064806]
99.7
